Every entry's value here was drawn from ChEMBL document CHEMBL5058577.

Please provide measured Population Fragmented Nuclei (%) for the entries that follow.
Tested on: HEK-293T
Test: Multiplex assay against HEK293T
Format: toxicity, cell-based
Conditions: human, 12 h, 1 µM, compound concentration 1 uM, replicate 1
Give just the numeric value; % need not be written.

Incoming: Quick one: Population Fragmented Nuclei (%) for `O=C(NCCO)c1cccc(-c2cc(Nc3ccc(OC(F)(F)F)cc3)ncn2)c1` ?
Outgoing: 7

Incoming: Quick one: Population Fragmented Nuclei (%) for `Cc1nc2ccc(Oc3ccc(F)cc3)cc2c(=O)n1C[C@H]1CCCN(C(C)C)C1.Cl` ?
Outgoing: 7

Incoming: Quick one: Population Fragmented Nuclei (%) for `CC(=O)NCCc1c(Cc2ccccc2)[nH]c2ccccc12` ?
Outgoing: 7
